Each entry below carries its recorded IC50.
methodSummary: Cytotoxicity against human ChaGo cells after 3 days by MTT assay
Format: functional, cell-based
experimentalContext: 72 h
# unit: µM | format: bare number

Example compounds with recorded IC50:
[
  {
    "compound": "COc1cc(OCC(O)CNCc2ccccc2)c2c(c1)O[C@@H]1COc3cc(OC)c(OC)cc3[C@]1(O)C2=O (mixture of isomers)",
    "IC50 [µM]": 31
  },
  {
    "compound": "COc1cc(OCC(O)CN2CCOCC2)c2c(c1)O[C@@H]1COc3cc(OC)c(OC)cc3[C@]1(O)C2=O (mixture of isomers)",
    "IC50 [µM]": 0.61
  }
]

Next compound, please.
compound COc1cc(OCC(O)CNCCN2CCOCC2)c2c(c1)O[C@@H]1COc3cc(OC)c(OC)cc3[C@]1(O)C2=O (mixture of isomers) , IC50 observed: 40.2

----------
System: HepG2
methodSummary: Cytotoxicity against human HepG2 cells after 3 days by MTT assay
Format: functional, cell-based
experimentalContext: HepG2, 72 h
measuredParameter: pIC50
Lab note — pIC50 values are minus log10 of concentrations in M.

[
  {
    "compound": "COc1cccc2c1C(=O)c1c(O)c3c(c(O)c1C2=O)C[C@@](O)(C(=O)CO)C[C@@H]3O[C@H]1C[C@H](N)[C@H](O)[C@H](C)O1",
    "pIC50": 6.59
  },
  {
    "compound": "COc1cc(OCC(O)CNCc2ccccc2)c2c(c1)O[C@@H]1COc3cc(OC)c(OC)cc3[C@]1(O)C2=O (mixture of isomers)",
    "pIC50": 6.14
  },
  {
    "compound": "COc1cc(OCC2CO2)c2c(c1)O[C@@H]1COc3cc(OC)c(OC)cc3[C@]1(O)C2=O (mixture of isomers)",
    "pIC50": 6.26
  }
]

compound COc1cc(OCC(O)CN2CCOCC2)c2c(c1)O[C@@H]1COc3cc(OC)c(OC)cc3[C@]1(O)C2=O (mixture of isomers) , pIC50 observed: 6.21

----------
assayTarget: DNA topoisomerase 2-alpha (Homo sapiens)
methodSummary: Inhibition of human topoisomerase 2alpha-mediated relaxation of supercoiled pBR322 at 100 uM after 30 mins by electrophoresis analysis
measuredParameter: inhibition (%)
# unit: % | format: bare number

[
  {
    "compound": "COc1cccc2c1C(=O)c1c(O)c3c(c(O)c1C2=O)C[C@@](O)(C(=O)CO)C[C@@H]3O[C@H]1C[C@H](N)[C@H](O)[C@H](C)O1",
    "assayTarget": "DNA topoisomerase 2-alpha (Homo sapiens)",
    "unitSpec": "%",
    "inhibition": 72.1
  },
  {
    "compound": "COc1cc(OCC(O)CN2CCOCC2)c2c(c1)O[C@@H]1COc3cc(OC)c(OC)cc3[C@]1(O)C2=O (mixture of isomers)",
    "assayTarget": "DNA topoisomerase 2-alpha (Homo sapiens)",
    "unitSpec": "%",
    "inhibition": 93.5
  },
  {
    "compound": "COc1cc(O)c2c(c1)O[C@@H]1COc3cc(OC)c(OC)cc3[C@]1(O)C2=O",
    "assayTarget": "DNA topoisomerase 2-alpha (Homo sapiens)",
    "unitSpec": "%",
    "inhibition": 72.1
  }
]

compound COCC(O)COc1cc(OC)cc2c1C(=O)[C@@]1(O)c3cc(OC)c(OC)cc3OC[C@H]1O2 (mixture of isomers) , inhibition observed: 58.4

compound COc1cc(OCC(O)CNCc2ccccc2)c2c(c1)O[C@@H]1COc3cc(OC)c(OC)cc3[C@]1(O)C2=O (mixture of isomers) , inhibition observed: 81.7

compound COc1cc(OCC(O)CNCCc2ccccc2)c2c(c1)O[C@@H]1COc3cc(OC)c(OC)cc3[C@]1(O)C2=O (mixture of isomers) , inhibition observed: 66.7

compound COc1cc(OCC(O)CCl)c2c(c1)O[C@@H]1COc3cc(OC)c(OC)cc3[C@]1(O)C2=O (mixture of isomers) , inhibition observed: 58.3
